# pIC50 per record follows
# TEST SYSTEM: human JNK3 enzyme (Homo sapiens, UniProt P53779)
# Sequence (P53779 whole entry): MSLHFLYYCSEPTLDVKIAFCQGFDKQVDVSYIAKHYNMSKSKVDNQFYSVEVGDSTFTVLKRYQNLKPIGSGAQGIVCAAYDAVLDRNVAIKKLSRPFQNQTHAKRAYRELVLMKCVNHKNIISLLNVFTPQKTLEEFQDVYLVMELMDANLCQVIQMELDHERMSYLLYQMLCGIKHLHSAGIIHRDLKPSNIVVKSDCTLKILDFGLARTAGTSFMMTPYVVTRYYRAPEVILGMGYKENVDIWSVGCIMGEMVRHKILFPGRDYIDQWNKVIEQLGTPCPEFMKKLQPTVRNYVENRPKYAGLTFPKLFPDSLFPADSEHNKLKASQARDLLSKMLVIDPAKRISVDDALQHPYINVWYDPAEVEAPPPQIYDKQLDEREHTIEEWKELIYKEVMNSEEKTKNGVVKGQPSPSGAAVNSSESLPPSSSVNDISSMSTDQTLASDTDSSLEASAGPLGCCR
# EXPERIMENT DESCRIPTION: Measurement of JNK3 enzymatic activity (33P-ATP filter-binding method)
# Type: biochemical
# CONDITION SET: Table 2; ATP 10 μM, ATF2 3 μM
pIC50: −log10 of the molar value.

For orientation, consider the following solved cases.
Exam item: Entry Oc1ccc2nc(-c3ccc(Cl)c(Cl)c3)n(-c3ccnc(NC4CCCCC4)n3)c2c1 [Compound 23e] : reported pIC50 = ?
Marked response: 7.00 to 7.52

Exam item: Which pIC50 is listed for Oc1ccc2nc(-c3ccc4c(c3)OCCO4)n(-c3ccnc(NC4CCCCC4)n3)c2c1 [Compound 23c] ?
Marked response: < 7.00

Exam item: Dear colleague, I am looking for the recorded pIC50 of the following compound: Oc1ccc2nc(-c3ccc4ccccc4n3)n(-c3ccnc(NC4CCCCC4)n3)c2c1 [Compound 23b]
Marked response: < 7.00

Exam item: Reported pIC50, compound Oc1ccc2nc(-c3ccc4occc4c3)n(-c3ccnc(NC4CCCCC4)n3)c2c1 [Compound 23d] : ____
Marked response: < 7.00

Exam item: Would you mind telling me what pIC50 value was observed for O=C(C1CC1)N1CCC[C@H](Nc2nccc(-n3c(-c4ccc5c(c4)OCCO5)nc4ccc(O)cc43)n2)C1 [Compound 26c] ?
Marked response: 7.00 to 7.52

More entries:
Exam item: Request the reported pIC50 associated with O=C(C1CC1)N1CCC[C@H](Nc2nccc(-n3c(-c4ccc(Cl)c(Cl)c4)nc4ccc(O)cc43)n2)C1 [Compound 26e]
Marked response: > 7.52

Exam item: Give its pIC50 value. Item: O=C(C1CC1)N1CCC[C@H](Nc2nccc(-n3c(-c4ccc5ccccc5n4)nc4ccc(O)cc43)n2)C1 [Compound 26b]
Marked response: 7.00 to 7.52

Exam item: May I ask what pIC50 has been recorded for O=C(C1CC1)N1CCC[C@H](Nc2nccc(-n3c(-c4ccc(F)c(C(F)(F)F)c4)nc4ccc(O)cc43)n2)C1 [Compound 26f] ?
Marked response: 7.00 to 7.52

Exam item: So what does the record say about pIC50 for Oc1ccc2nc(-c3ccc(F)c(C(F)(F)F)c3)n(-c3ccnc(NC4CCCCC4)n3)c2c1 [Compound 23f] ?
Marked response: < 7.00
